- Measurement target: mouse MC1R (Mus musculus)
- Sequence (Q01727 whole entry): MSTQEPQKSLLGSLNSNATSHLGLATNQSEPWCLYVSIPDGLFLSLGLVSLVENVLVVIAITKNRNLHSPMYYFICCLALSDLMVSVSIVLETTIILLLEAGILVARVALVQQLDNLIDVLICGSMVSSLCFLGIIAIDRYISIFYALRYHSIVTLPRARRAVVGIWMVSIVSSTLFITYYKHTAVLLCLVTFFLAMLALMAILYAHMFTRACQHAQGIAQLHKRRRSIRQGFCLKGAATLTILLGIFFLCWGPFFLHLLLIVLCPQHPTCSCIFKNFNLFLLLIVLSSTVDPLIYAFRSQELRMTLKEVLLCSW
- Test method notes: cell-based
Observed property: EC50 (nM)
One number for each entry, in nM.

These solved cases illustrate the format of a correct answer.
C[C@@H]1NC(=O)[C@H](CN)NC(=O)[C@@H](Cc2ccccc2)NC(=O)[C@H](Cc2ccccc2)NC(=O)[C@@H](CCCNC(=N)N)NC(=O)[C@@H]2CCCN2C(=O)[C@H]2CCCN2C(=O)[C@H](Cc2ccccc2)NC1=O [Peptide 14, c[Pro-DArg-Phe-DPhe-Dap-Ala-Phe-DPro]]; 450
C[C@@H]1NC(=O)[C@H](CN)NC(=O)[C@@H](Cc2ccccc2)NC(=O)[C@H](Cc2ccccc2)NC(=O)[C@H](CCCNC(=N)N)NC(=O)[C@@H]2CCCN2C(=O)[C@H]2CCCN2C(=O)[C@H](Cc2ccccc2)NC1=O [Peptide 12, c[Pro-Arg-Phe-DPhe-Dap-Ala-Phe-DPro]]; 800
C[C@@H]1NC(=O)[C@H](CC(N)=O)NC(=O)[C@H](Cc2ccccc2)NC(=O)[C@@H](Cc2ccccc2)NC(=O)[C@@H](CCCNC(=N)N)NC(=O)[C@@H]2CCCN2C(=O)[C@H]2CCCN2C(=O)[C@H](Cc2ccccc2)NC1=O [Peptide 6, c[Pro-DArg-DPhe-Phe-Asn-Ala-Phe-DPro]]; 500

Dear colleague, could you please provide EC50 for the compounds listed below?
1. C[C@@H]1NC(=O)[C@H](CC(N)=O)NC(=O)[C@@H](Cc2ccccc2)NC(=O)[C@@H](Cc2ccccc2)NC(=O)[C@H](CCCNC(=N)N)NC(=O)[C@@H]2CCCN2C(=O)[C@H]2CCCN2C(=O)[C@H](Cc2ccccc2)NC1=O [Peptide 8, c[Pro-Arg-DPhe-DPhe-Asn-Ala-Phe-DPro]]
2. C[C@@H]1NC(=O)[C@H](CN)NC(=O)[C@@H](Cc2ccccc2)NC(=O)[C@@H](Cc2ccccc2)NC(=O)[C@@H](CCCNC(=N)N)NC(=O)[C@@H]2CCCN2C(=O)[C@H]2CCCN2C(=O)[C@H](Cc2ccccc2)NC1=O [Peptide 16, c[Pro-DArg-DPhe-DPhe-Dap-Ala-Phe-DPro]]
3. C[C@@H]1NC(=O)[C@H](CN)NC(=O)[C@H](Cc2ccccc2)NC(=O)[C@@H](Cc2ccccc2)NC(=O)[C@@H](CCCNC(=N)N)NC(=O)[C@@H]2CCCN2C(=O)[C@H]2CCCN2C(=O)[C@H](Cc2ccccc2)NC1=O [Peptide 13, c[Pro-DArg-DPhe-Phe-Dap-Ala-Phe-DPro]]
4. C[C@@H]1NC(=O)[C@H](CC(N)=O)NC(=O)[C@@H](Cc2ccccc2)NC(=O)[C@@H](Cc2ccccc2)NC(=O)[C@@H](CCCNC(=N)N)NC(=O)[C@@H]2CCCN2C(=O)[C@H]2CCCN2C(=O)[C@H](Cc2ccccc2)NC1=O [Peptide 9, c[Pro-DArg-DPhe-DPhe-Asn-Ala-Phe-DPro]]
5. C[C@@H]1NC(=O)[C@H](CC(N)=O)NC(=O)[C@H](Cc2ccccc2)NC(=O)[C@@H](Cc2ccccc2)NC(=O)[C@H](CCCNC(=N)N)NC(=O)[C@@H]2CCCN2C(=O)[C@H]2CCCN2C(=O)[C@H](Cc2ccccc2)NC1=O [Peptide 4, c[Pro-Arg-DPhe-Phe-Asn-Ala-Phe-DPro]]

[800, 2200, 800, 1300, 700]

Quick one: give me EC50 for each item below, same order please.
1. C[C@@H]1NC(=O)[C@H](CN)NC(=O)[C@@H](Cc2ccccc2)NC(=O)[C@@H](Cc2ccccc2)NC(=O)[C@H](CCCNC(=N)N)NC(=O)[C@@H]2CCCN2C(=O)[C@H]2CCCN2C(=O)[C@H](Cc2ccccc2)NC1=O [Peptide 15, c[Pro-Arg-DPhe-DPhe-Dap-Ala-Phe-DPro]]
2. C[C@@H]1NC(=O)[C@H](CN)NC(=O)[C@H](Cc2ccccc2)NC(=O)[C@@H](Cc2ccccc2)NC(=O)[C@H](CCCNC(=N)N)NC(=O)[C@@H]2CCCN2C(=O)[C@H]2CCCN2C(=O)[C@H](Cc2ccccc2)NC1=O [Peptide 11, c[Pro-Arg-DPhe-Phe-Dap-Ala-Phe-DPro]]

700
230
